Recorded values, source the DeepSol protein solubility set.

- protocolDescription: soluble on expression in E. coli; label from the status in PepcDB or PDB records
measuredAttribute: soluble on expression in E. coli

Item "MNKTYDFKSITENFNLEGELKTSDSHVCGHINDTFIINCEGENGEEIKYVLQRVNSDIFKNPEQLMENIENVTSHIKNKIIEENGDPLRETLNIVKTKEGKNFYKCKEGNYWRIFNFIHDASTYQIVEKPEHLYTAGKALGKFQKQLSDFNVDMLYDTIPDFHNTEKRFEAFMEAVREDKKGRAKDVKEEIDFVINRAEDTKVLVNMIKENKLPLRVTHNDTKFNNIMIDDETGEGIAVIDLDTVMPGLSLYDFGDSIRSGATTALEDEVDLSKVNFDLNLYEHFTKGFLESAGDAFTKEEIEYLPFAAKLMTFECGMRFLMDYLNGDVYFKIHRENHNLDRARNQFKLVSDMEKEMDNMKKIVYSYILEHHHHHH" has what recorded soluble on expression in E. coli?
not soluble

Now try "MAQHVKFHQYFFQWMQLYKLDAVRPVTYRKYEMSHRQLVTLAPDLKMADLSRLTYQQLLNDYAETHERQTTMDFHRHLKGSLIDALEEGFIDRDPTRKAIIKGIKLEHHHHHH" .
not soluble
